# protocol.summary: Thermodynamic solubility with filtration
# Type: physicochemical
# condition.parameters: aqueous buffer, thermodynamic from solid, pH 7.4 phosphate buffer (0.1 M), room temperature, filtered
property: solubility at 24 h (µg/mL)

Past entries and their recorded results:
Cc1nc(CN(C)C2CCN(c3nnc(-c4ccnn4C)c(C)c3C)CC2)c(C(F)(F)F)o1 [Example 97] : 1010
Cn1nccc1-c1nnc(N2CCC(NCc3cnccc3C(F)(F)F)CC2)c2ccccc12 [Example 156] : 321

a: Cc1c(-c2ccnn2C)nnc(N2CCC(NC(=O)NC(C)(C)C)CC2)c1C [Example 116]
b: CN(C(=O)Nc1ccc(F)cc1C(F)(F)F)C1CCN(c2nnc(-c3ccnn3C)c3ccncc23)CC1 [Example 112]
c: Cc1nc(CN(C)C2CCN(c3nnc(-c4ccnn4C)c4ccccc34)CC2)c(C(F)(F)F)o1 [Example 98]
// ranking: key=solubility at 24 h, reverse=True // ordering of labels required in reply
a, b, c
(a: 1260 µg/mL, b: 399 µg/mL, c: 106 µg/mL)

---

# Test system: Hedgehog signalling pathway
# protocol.summary: Gli-reporter NIH3T3 luciferase assay (Hedgehog pathway inhibition)
# Format: cell-based
# condition.parameters: NIH3T3; Gli-reporter NIH-3T3 cells, recombinant mouse sonic hedgehog, 24 hours, luminescence; read-out: Category (Hedgehog pathway inhibition activity, IC50)
pIC50: −log10 of the molar value.
property: pIC50

Past entries and their recorded results:
Cn1nccc1-c1nnc(N2CCC(NCc3ccc(F)nc3C(F)(F)F)CC2)c2ccccc12 : 6.70 to 8.00
Cn1nccc1-c1nnc(N2CCC(NC(=O)Nc3cccc(C(F)(F)F)c3)CC2)c2ccccc12 : > 8.00
Cn1nccc1-c1nnc(N2CCC(NC(=O)Nc3ccccc3C(F)(F)F)CC2)c2ccccc12 : > 8.00
Cn1nccc1-c1nnc(N2CCC(NC(=O)Nc3cccc(F)c3)CC2)c2ccccc12 : > 8.00
Cn1nccc1-c1nnc(N2CCC(NC(=O)Nc3cccc(C#N)c3)CC2)c2ccccc12 : > 8.00

Please report the measured pIC50 for Cn1nccc1-c1nnc(N2CCC(NCc3ccc(C(F)(F)F)cc3)CC2)c2ccccc12 tested on Hedgehog signalling pathway.
6.70 to 8.00

Please report the measured pIC50 for CCOc1ccccc1CNC1CCN(c2nnc(-c3ccnn3C)c3ccccc23)CC1 tested on Hedgehog signalling pathway.
6.70 to 8.00

Please report the measured pIC50 for Cn1nccc1-c1nnc(N2CCC(NCc3ccc(F)cc3Cl)CC2)c2ccccc12 tested on Hedgehog signalling pathway.
6.70 to 8.00

---

# System: Hedgehog signalling pathway
# protocol.summary: Gli-reporter NIH3T3 luciferase assay (Hedgehog pathway inhibition)
# Format: cell-based
# condition.parameters: NIH3T3; Gli-reporter NIH-3T3 cells, recombinant mouse sonic hedgehog, 24 hours, luminescence; read-out: Category (Hedgehog pathway inhibition activity, IC50)
pIC50: −log10 of the molar value.
property: pIC50

Past entries and their recorded results:
Cn1nccc1-c1nnc(N2CCC(NC(=O)Nc3ccc(C#N)cc3)CC2)c2ccccc12 : > 8.00
COc1cccc(NC(=O)NC2CCN(c3nnc(-c4ccnn4C)c4ccccc34)CC2)c1 : > 8.00
COc1ccc(CN(C)C2CCN(c3nnc(-c4ccnn4C)c4ccccc34)CC2)cc1 : 5.70 to 6.70

Here's the next entry for you.
// Input: COc1cccc(CNC2CCN(c3nnc(-c4ccnn4C)c4ccccc34)CC2)c1 . Output its pIC50 only.
6.70 to 8.00

---

# System: Hedgehog signalling pathway
# protocol.summary: Gli-reporter NIH3T3 luciferase assay (Hedgehog pathway inhibition)
# Format: cell-based
# condition.parameters: NIH3T3; Gli-reporter NIH-3T3 cells, recombinant mouse sonic hedgehog, 24 hours, luminescence; read-out: Category (Hedgehog pathway inhibition activity, IC50)
pIC50: −log10 of the molar value.
pIC50 for assorted compounds

Cn1nccc1-c1nnc(N2CCC(NCc3ccc(F)nc3F)CC2)c2ccccc12 : 6.70 to 8.00
Cn1nccc1-c1nnc(N2CCC(NCc3ccccc3C(F)(F)F)CC2)c2ccccc12 : > 8.00
Cn1nccc1-c1nnc(N2CCC(NC(=O)Nc3ccc(C(F)(F)F)cc3)CC2)c2ccccc12 : > 8.00
CN(Cc1ccc(F)cc1C(F)(F)F)C1CCN(c2nnc(-c3ccnn3C)c3ccccc23)C1 (centres unmarked) : 6.70 to 8.00
CN(Cc1ccc(F)cc1C(F)(F)F)C1CCN(c2nnc(-c3ccnn3C)c3ccccc23)CC1 : > 8.00

Please report the measured pIC50 for COc1nnc(N2CCC(NCc3ccc(F)cc3C(F)(F)F)CC2)c2ccccc12 tested on Hedgehog signalling pathway.
5.70 to 6.70

Please report the measured pIC50 for Cn1nccc1-c1nnc(N2CCC(NCc3ccccc3Cl)CC2)c2ccccc12 tested on Hedgehog signalling pathway.
6.70 to 8.00

Please report the measured pIC50 for Cn1nccc1-c1nnc(N2CCC(NC(=O)OC(C)(C)C)CC2)c2ccccc12 tested on Hedgehog signalling pathway.
6.70 to 8.00

Please report the measured pIC50 for CN(Cc1cccc(F)c1)C1CCN(c2nnc(-c3ccnn3C)c3ccccc23)CC1 tested on Hedgehog signalling pathway.
6.70 to 8.00

Please report the measured pIC50 for CN(Cc1ccc(C#N)cc1)C1CCN(c2nnc(-c3ccnn3C)c3ccccc23)CC1 tested on Hedgehog signalling pathway.
6.70 to 8.00

Please report the measured pIC50 for Cn1nccc1-c1nnc(N2CCC(NCc3ccccc3F)CC2)c2ccccc12 tested on Hedgehog signalling pathway.
6.70 to 8.00

---

# Test system: Hedgehog signalling pathway
# protocol.summary: Gli-reporter NIH3T3 luciferase assay (Hedgehog pathway inhibition)
# Format: cell-based
# condition.parameters: NIH3T3; Gli-reporter NIH-3T3 cells, recombinant mouse sonic hedgehog, 24 hours, luminescence; read-out: Category (Hedgehog pathway inhibition activity, IC50)
IC50 for assorted compounds

CSc1ccccc1CN(C)C1CCN(c2nnc(-c3ccnn3C)c3ccccc23)CC1 : < 10 nM

// Input: Cn1nccc1-c1nnc(N2CCC(NS(=O)(=O)c3ccc(F)cc3C(F)(F)F)CC2)c2ccccc12 . Output its IC50 only.
< 10 nM

// Input: Cn1nccc1-c1nnc(N2CCC(NCc3ccncc3C(F)(F)F)CC2)c2ccccc12 . Output its IC50 only.
10 to 200 nM

// Input: Cn1nccc1-c1nnc(N2CCC(NCc3ccc(Cl)cc3)CC2)c2ccccc12 . Output its IC50 only.
10 to 200 nM

---

# Test system: Hedgehog signalling pathway
# protocol.summary: Gli-reporter NIH3T3 luciferase assay (Hedgehog pathway inhibition)
# Type: cell-based
# condition.parameters: NIH3T3; Gli-reporter NIH-3T3 cells, recombinant mouse sonic hedgehog, 24 hours, luminescence; read-out: Category (Hedgehog pathway inhibition activity, IC50)
pIC50: −log10 of the molar value.
pIC50 for assorted molecules

// Input: CC(C)c1ccccc1CNC1CCN(c2nnc(-c3ccnn3C)c3ccccc23)CC1 . Output its pIC50 only.
6.70 to 8.00

// Input: Cn1nccc1-c1nnc(N2CCC(NCc3ccc(OC(F)(F)F)cc3)CC2)c2ccccc12 . Output its pIC50 only.
6.70 to 8.00

// Input: Cn1nccc1-c1nnc(N2CCC(NC(=O)NC3CCCCC3)CC2)c2ccccc12 . Output its pIC50 only.
> 8.00

// Input: Cc1c(-c2ccnn2C)nnc(N2CCC(N(C)Cc3ccc(F)cc3C(F)(F)F)CC2)c1C . Output its pIC50 only.
6.70 to 8.00

---

pIC50 for assorted molecules
# Tested on: Hedgehog signalling pathway
# protocol.summary: Gli-reporter NIH3T3 luciferase assay (Hedgehog pathway inhibition)
# Type: cell-based
# condition.parameters: NIH3T3; Gli-reporter NIH-3T3 cells, recombinant mouse sonic hedgehog, 24 hours, luminescence; read-out: Category (Hedgehog pathway inhibition activity, IC50)
pIC50: −log10 of the molar value.

COc1ccccc1NC(=O)NC1CCN(c2nnc(-c3ccnn3C)c3ccccc23)CC1 [Example 15] : > 8.00
CN(Cc1ccc(F)cc1C(F)(F)F)C1CCN(c2nnc(-c3ccnn3C)c3ccncc23)CC1 [Example 47] : > 8.00
Cn1nccc1-c1nnc(N2CCC(NCc3ccc(F)cc3)CC2)c2ccccc12 [Example 75] : 5.70 to 6.70
Cn1nccc1-c1nnc(N2CCC(NCc3ccc(F)cc3F)CC2)c2ccccc12 [Example 74] : 5.70 to 6.70
COc1ccc(CNC2CCN(c3nnc(-c4ccnn4C)c4ccccc34)CC2)cc1 [Example 71] : 5.70 to 6.70

// Input: CN(Cc1ccccc1C#N)C1CCN(c2nnc(-c3ccnn3C)c3ccccc23)CC1 [Example 33] . Output its pIC50 only.
6.70 to 8.00

// Input: CC(C)c1ccccc1CN(C)C1CCN(c2nnc(-c3ccnn3C)c3ccccc23)CC1 [Example 29] . Output its pIC50 only.
6.70 to 8.00

// Input: COc1cccc(CN(C)C2CCN(c3nnc(-c4ccnn4C)c4ccccc34)CC2)c1 [Example 62] . Output its pIC50 only.
6.70 to 8.00

// Input: Cn1nccc1-c1nnc(N2CCC(NCc3ccccc3)CC2)c2ccccc12 [Example 57] . Output its pIC50 only.
5.70 to 6.70

// Input: Cn1nccc1-c1nnc(N2CCC(NCc3cccc(OC(F)(F)F)c3)CC2)c2ccccc12 [Example 34] . Output its pIC50 only.
6.70 to 8.00

// Input: Cn1nccc1-c1nnc(N2CCC(NCc3ccc(F)cc3C(F)(F)F)CC2)c2cnccc12 [Example 49] . Output its pIC50 only.
6.70 to 8.00

// Input: Cn1nccc1-c1nnc(N2CCC(NCc3ccc(C#N)cc3)CC2)c2ccccc12 [Example 68] . Output its pIC50 only.
5.70 to 6.70

// Input: Cn1nccc1-c1nnc(N2CCC(NC(=O)Nc3ccc(F)cc3C(F)(F)F)CC2)c2ccccc12 [Example 23] . Output its pIC50 only.
> 8.00

Where do the numbers come from? From patent US9579319B2.
